Measured pEC50, listed per entry for reference.
Target: human GLP1R (Homo sapiens (Human))
Sequence (P43220 24-463): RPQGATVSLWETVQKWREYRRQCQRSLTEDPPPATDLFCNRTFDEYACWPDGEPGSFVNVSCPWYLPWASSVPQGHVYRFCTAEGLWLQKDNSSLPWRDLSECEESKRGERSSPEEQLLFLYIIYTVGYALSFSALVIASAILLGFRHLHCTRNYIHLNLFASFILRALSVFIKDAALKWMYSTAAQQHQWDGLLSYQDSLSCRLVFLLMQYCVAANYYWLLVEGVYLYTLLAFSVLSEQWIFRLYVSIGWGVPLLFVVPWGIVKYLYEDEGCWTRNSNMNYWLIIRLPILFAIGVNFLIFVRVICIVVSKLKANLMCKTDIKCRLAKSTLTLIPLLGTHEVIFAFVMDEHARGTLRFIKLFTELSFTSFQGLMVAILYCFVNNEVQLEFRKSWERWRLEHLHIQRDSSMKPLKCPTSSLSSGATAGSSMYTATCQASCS
Experiment: In vitro cAMP signal activation in human GLP1R stably-expressing cell line (hGLP1R-HEK293)
Conditions: cAMP concentration in hGLP1R-HEK293; 100% = 1 nM human GLP-1 (7-37)
Procedure: <Test Example 1> Measurement of In Vitro cAMP Signal Activation of a Compound in Human GLP1R A human GLP1R stably-expressing cell line (hGLP1R-HEK293) was used in the experiment. […] hGLP1R-HEK293 was seeded in 96 well plates at 2.0×10^4 cells per well and cultured over night. […] The cAMP concentration was quantified using cAMP HiRange kit (Cisbio Bioassays). […]
pEC50: −log10 of the molar value.
result_type: pEC50

[[record]]
compound = "Cc1cc(-n2nc3c(c2-n2ccn(-c4ccc5c(C)nsc5c4)c2=O)[C@H](C)N(C(=O)c2cc4cc(C5CCOCC5)ccc4n2[C@@]2(c4noc(=O)[nH]4)C[C@@H]2C)CC3)cc(C)c1F [Example 18]"
target_or_test_system = "human GLP1R (Homo sapiens (Human))"
result_type = "pEC50"
reported_measurement = 8.89

[[record]]
compound = "COCCn1ncc2cc(-n3ccn(-c4c5c(nn4-c4cc(C)c(F)c(C)c4)CCN(C(=O)c4cc6cc(C7CCOCC7)ccc6n4[C@@]4(c6noc(=O)[nH]6)C[C@@H]4C)[C@H]5C)c3=O)ccc21 [Example 16]"
target_or_test_system = "human GLP1R (Homo sapiens (Human))"
result_type = "pEC50"
reported_measurement = 9.29

[[record]]
compound = "Cc1cc(-n2nc3c(c2-n2ccn(-c4ccc5c(cnn5CC5(C)COC5)c4F)c2=O)[C@H](C)N(C(=O)c2cc4cc(C5CCOCC5)ccc4n2[C@@]2(c4noc(=O)[nH]4)C[C@@H]2C)CC3)cc(C)c1F [Example 29]"
target_or_test_system = "human GLP1R (Homo sapiens (Human))"
result_type = "pEC50"
reported_measurement = 8.85


Value source: patent US10858356B2
